Provide the reported pEC50 of each item.
Test system: Plasmodium falciparum
Assay: Antimalarial activity against chloroquine, pyrimethamine, mefloquine and atovaquone- resistant Plasmodium falciparum TM90-C2B infected in human erythrocytes assessed as reduction in parasite growth incubated for 48 hrs followed by addition of [3H]-hypoxanthine and measured after 24 hrs by Topcount liquid scintillation counting method
Type: functional, organism-based
Conditions: Erythrocyte
One number for each entry, as −log10 of the molar value.

SMILES STRING	QUANTITATIVE READOUT
CCOC(=O)Oc1c(-c2ccccc2C)c(C)nc2cc(OC)c(Cl)cc12	6.90
CNCCCOC(=O)OCOc1c(-c2ccccc2C)c(C)nc2cc(OC)c(Cl)cc12.Cl	6.77
O=C1C(O)=C([C@H]2CC[C@H](c3ccc(Cl)cc3)CC2)C(=O)c2ccccc21	4.74
CCC(=O)Oc1c(-c2ccccc2C)c(C)nc2cc(OC)c(Cl)cc12	7.20
COc1cc2[nH]c(C)c(-c3ccccc3C)c(=O)c2cc1Cl	7.42

Note: attention shifts to another entry.
### Prompt Which pEC50 is reported for this molecule? `CNCCOC(=O)OCOc1c(-c2ccccc2C)c(C)nc2cc(OC)c(Cl)cc12.Cl`
### Response 6.97
